Tested on: UACC-62 melanoma
METHOD DESCRIPTION: NCI tumour cell line growth inhibition, 48 h
Binary call on TGI: true from 30 µM upward, false beneath that.

| COMPOUND | GROUP LABEL |
| --- | --- |
| COC(=O)c1nc(-c2ccccc2)oc1S(=O)(=O)n1nc(C)cc1N | false |
| O=P1(Oc2ccccc2)C(c2ccccc2)C(c2ccccc2)=NN1c1ccccc1 (stereo unspecified) | true |
| O=[As](O)(O)c1ccc(N=Nc2ccc(O)cc2)cc1 | true |

Q: TGI >= 30 µM for `CN1COc2c(n(C)c(=O)[nH]c2=O)C1` ?
A: true

Q: TGI >= 30 µM for `CCn1c2ccccc2c2cc(/C=C(/C#N)C(N)=O)ccc21` ?
A: false

Q: TGI >= 30 µM for `COc1ccc(C=O)c(NC(=O)C(C)C)c1` ?
A: true

Q: TGI >= 30 µM for `COc1cc2nc(NCCCCCNC(=O)c3ccco3)nc(N)c2cc1OC` ?
A: true

Q: TGI >= 30 µM for `CN(CC(N)=O)C(=O)N(CCCl)N=O` ?
A: true

Q: TGI >= 30 µM for `CSC(=S)N/N=C(\C)c1cccc(C)n1` ?
A: false

---

Test system: M19-MEL melanoma
METHOD DESCRIPTION: NCI tumour cell line growth inhibition, 48 h
Assign TGI to each entry below.

Look at each compound and report its TGI.
1. Fc1cccc(C2SCc3nc4ccccc4n32)c1F (centres undefined)
2. Cc1cc(NCCCCCCCNc2cc(C)nc3cc([N+](=O)[O-])ccc23)c2ccc([N+](=O)[O-])cc2n1
3. CCCc1ccc(NCc2cc(OC)c(OC)c(OC)c2)cc1
4. CN(C)CCC(/C=C/c1ccccc1)=N\Nc1ccc(Cl)cc1Cl

A:
["> 100 µM", "35.9 µM", "44.6 µM", "29 µM"]

---

Test system: SW-620 colon
METHOD DESCRIPTION: NCI tumour cell line growth inhibition, 48 h; in the data active = GI50 below about 0.43 µM; inactive = the rest
// classify into y (active), n (inactive)

| MOLECULE | GROUP LABEL |
| --- | --- |
| COc1ccc2c(c1)OC1=C(C(=O)OC1)C2c1cc(OC)c2c(c1)OCO2 (centres undefined) | y |
| CC(=O)c1c(C(F)(F)F)n([O-])c2ccc(C)cc2[n+]1=O | n |
| CC1OC(O[C@H]2/C=C/C=C/C=C/C=C/C=C/C=C/C=C/[C@H](C)[C@@H](O)[C@@H](C)[C@H](C)OC(=O)CC(O)CC(O)CCC(O)C(O)CC(O)C[C@]3(O)C[C@H](O)C(C(=O)O)C(C2)O3)C(O)[C@H](N)C1O (some centres undefined) | n |

Q: # fetch the recorded call for `Cc1nc2ccccc2c(/C=C/c2ccc(Br)cc2)c1C(=O)/C=C/c1ccccc1` here
A: n

---

Tested on: MOLT-4 leukemia
METHOD DESCRIPTION: NCI tumour cell line growth inhibition, 48 h; in the data active means GI50 below about 0.43 µM; inactive means the rest
// classify into active, inactive

Record excerpt, results attached:
| MOLECULE | GROUP LABEL |
| --- | --- |
| CC(C)(C)c1ccc(C(=O)Nc2sc3c(c2C(N)=O)CCC(=O)C3)cc1 | inactive |
| CCCCn1c(=O)c2c(nc3n2CCCN3CCc2ccc(OCC(=O)NCCN(CC)CC)cc2)n(CCCC)c1=O | inactive |
| COc1ccc(OC)c(Cn2cc3c(c2)-c2oncc2CC3)c1 | inactive |
| O=C(N/N=C/c1cc(Cl)cc(Cl)c1O)c1ccccc1O | active |
| COc1ccc2cc(-c3c(-c4ccncc4)nc(-c4ccc(S(C)=O)cc4)n3C)ccc2c1 (stereo unspecified) | inactive |

Q: # fetch the recorded call for `Nc1ccc(-c2nc3ccccc3[nH]2)c2ccccc12` here
A: inactive

Q: # fetch the recorded call for OC(c1cc2cc(Cl)c(Cl)cc2c2cc(C(F)(F)F)ccc12)C1CCCCN1 (stereo unspecified) here
A: inactive

Q: # fetch the recorded call for `O=C1NC(=O)C(c2cccc(Cl)c2)=C1Nc1ccc(O)c(Cl)c1` here
A: inactive

Q: # fetch the recorded call for C/C1=C\[C@@H](O)C(=O)/C=C/C=C\c2csc(n2)[C@@H](C)NC(=O)C[C@@]2(CC1)S(=O)SC(=O)[C@]2(C)O (stereo partly specified) here
A: inactive

Q: # fetch the recorded call for `N#CN1CC[C@H](C(=O)Nc2ncc(-c3ccncc3)s2)C1` here
A: active

Q: # fetch the recorded call for `Cn1cc(-c2nonc2-c2cn(C)c3ccccc23)c2ccccc21` here
A: inactive
